test-protocol: Metabolic stability in rat liver microsomes assessed as intrinsic clearance
Assay type: ADME, Microsome
setup-conditions: read-out: CLH
measured-property: CLint scaled (mL/min/kg)

• CN1CC(F)(F)CCN(C)[C@H]2CC[C@@H](C2)Nc2ncc(C(F)(F)F)c(n2)-c2c[nH]c3c(P(C)(C)=O)c(ccc23)C1=O = 44.9
• CC1(C)CC[C@H](Nc2ncc(C(F)(F)F)c(-c3c[nH]c4c(P(C)(C)=O)c(C#N)ccc34)n2)CN1 = 4.3

---

test-protocol: Half life in rat at 5 mg/kg, po
Format: ADME, organism-based
setup-conditions: in vivo
measured-property: half-life

* CN1CC(F)(F)CCN(C)[C@H]2CC[C@@H](C2)Nc2ncc(C(F)(F)F)c(n2)-c2c[nH]c3c(P(C)(C)=O)c(ccc23)C1=O | 1.4 h

---

test-protocol: Drug concentration in rat small intestine at 5 mg/kg, po measured after 2 hrs
Assay type: ADME, organism-based
setup-conditions: read-out: Ct
measured-property: concentration at 2 h (ng/g)

• CC1(C)CC[C@H](Nc2ncc(C(F)(F)F)c(-c3c[nH]c4c(P(C)(C)=O)c(C#N)ccc34)n2)CN1 = 5030
• CN1CC(F)(F)CCN(C)[C@H]2CC[C@@H](C2)Nc2ncc(C(F)(F)F)c(n2)-c2c[nH]c3c(P(C)(C)=O)c(ccc23)C1=O = 3230

---

test-protocol: Volume of distribution at steady state in rat at 1 mg/kg, iv
Format: ADME, organism-based
setup-conditions: in vivo, read-out: Vdss
Each entry below carries its recorded Vd.
measured-property: Vd

- CC1(C)CC[C@H](Nc2ncc(C(F)(F)F)c(-c3c[nH]c4c(P(C)(C)=O)c(C#N)ccc34)n2)CN1: 16.9 L/kg
- CN1CC(F)(F)CCN(C)[C@H]2CC[C@@H](C2)Nc2ncc(C(F)(F)F)c(n2)-c2c[nH]c3c(P(C)(C)=O)c(ccc23)C1=O: 2.6 L/kg

---

Each entry below carries its recorded bioavailability.
test-protocol: Oral bioavailability in dog at 2 mg/kg
Assay type: ADME, organism-based, Canis lupus familiaris
setup-conditions: in vivo
measured-property: bioavailability (%)

• CN1CC(F)(F)CCN(C)[C@H]2CC[C@@H](C2)Nc2ncc(C(F)(F)F)c(n2)-c2c[nH]c3c(P(C)(C)=O)c(ccc23)C1=O = 147
• CC1(C)CC[C@H](Nc2ncc(C(F)(F)F)c(-c3c[nH]c4c(P(C)(C)=O)c(C#N)ccc34)n2)CN1 = 65.8

---

test-protocol: AUC(0 to t) in rat at 1 mg/kg, iv
Assay type: ADME, organism-based
setup-conditions: in vivo
measured-property: AUC(0-t) (ng·h/mL)

• CN1CC(F)(F)CCN(C)[C@H]2CC[C@@H](C2)Nc2ncc(C(F)(F)F)c(n2)-c2c[nH]c3c(P(C)(C)=O)c(ccc23)C1=O = 415
• CC1(C)CC[C@H](Nc2ncc(C(F)(F)F)c(-c3c[nH]c4c(P(C)(C)=O)c(C#N)ccc34)n2)CN1 [SY-5609] = 247

---

test-protocol: Cmax in Sprague-Dawley rat at 100 mg/kg, po
Format: ADME, organism-based
setup-conditions: in vivo
measured-property: Cmax (ng/mL)

* CN1CC(F)(F)CCN(C)[C@H]2CC[C@@H](C2)Nc2ncc(C(F)(F)F)c(n2)-c2c[nH]c3c(P(C)(C)=O)c(ccc23)C1=O | 3830

---

Each entry below carries its recorded Cmax.
test-protocol: Cmax in female Balb/c nude mouse at 10 mg/kg, po
Assay type: ADME, organism-based
setup-conditions: in vivo
measured-property: Cmax (ng/mL)

* CP(C)(=O)c1c2ccc3c(c[nH]c13)-c1nc(ncc1C(F)(F)F)N[C@H]1CC[C@@H](C1)NCCOCCNC2=O | 89.4
* CP(C)(=O)c1c2ccc3c(c[nH]c13)-c1nc(ncc1C(F)(F)F)N[C@H]1CC[C@@H](C1)NCCCCNC2=O | 16.8

---

test-protocol: AUC (0 to t) in human OVCAR-3 cells xenografted in female Balb/c nude mouse plasma at 10 mg/kg, po administered once daily
Type: ADME, organism-based
measured-property: AUC(0-t) (ng·h/mL)

* CN1CC(F)(F)CCN(C)[C@H]2CC[C@@H](C2)Nc2ncc(C(F)(F)F)c(n2)-c2c[nH]c3c(P(C)(C)=O)c(ccc23)C1=O | 1720

---

test-protocol: Cmax in female Balb/c nude mouse at 5 mg/kg, po
Type: ADME, organism-based
setup-conditions: in vivo
Each entry below carries its recorded Cmax.
measured-property: Cmax (µg/mL)

* CN1CCOCCN(C)[C@H]2CC[C@@H](C2)Nc2ncc(C(F)(F)F)c(n2)-c2c[nH]c3c(P(C)(C)=O)c(ccc23)C1=O | 0.268
* CN1C[C@@H](F)CCN(C)[C@H]2CC[C@@H](C2)Nc2ncc(C(F)(F)F)c(n2)-c2c[nH]c3c(P(C)(C)=O)c(ccc23)C1=O | 0.17
* CN1CCCCO[C@H]2CC[C@@H](C2)Nc2ncc(C(F)(F)F)c(n2)-c2c[nH]c3c(P(C)(C)=O)c(ccc23)C1=O | 0.343
* CN1CCCCN(C)[C@H]2CC[C@@H](C2)Nc2ncc(C(F)(F)F)c(n2)-c2c[nH]c3c(P(C)(C)=O)c(ccc23)C1=O | 0.105
* CN1CC(F)(F)CCN(C)[C@H]2CC[C@@H](C2)Nc2ncc(C(F)(F)F)c(n2)-c2c[nH]c3c(P(C)(C)=O)c(ccc23)C1=O | 0.355

---

Each entry below carries its recorded AUC(0-inf).
test-protocol: AUC(0 to infinity) in female Balb/c nude mouse at 10 mg/kg, po
Format: ADME, organism-based
setup-conditions: in vivo
measured-property: AUC(0-inf)

* CP(C)(=O)c1c2ccc3c(c[nH]c13)-c1nc(ncc1C(F)(F)F)N[C@H]1CC[C@@H](C1)NCCOCCNC2=O | 412 ng·h/mL
* CP(C)(=O)c1c2ccc3c(c[nH]c13)-c1nc(ncc1C(F)(F)F)N[C@H]1CC[C@@H](C1)NCCCCNC2=O | 26 ng·h/mL

---

test-protocol: Half life in human OVCAR-3 cells xenografted in female Balb/c nude mouse plasma at 5 mg/kg, po administered once daily
Format: ADME, organism-based
measured-property: half-life (h)

- CN1CC(F)(F)CCN(C)[C@H]2CC[C@@H](C2)Nc2ncc(C(F)(F)F)c(n2)-c2c[nH]c3c(P(C)(C)=O)c(ccc23)C1=O: 2.8

---

test-protocol: Drug concentration in rat plasma at 5 mg/kg, po measured after 2 hrs
Format: ADME, organism-based
Each entry below carries its recorded concentration at 2 h.
measured-property: concentration at 2 h

* CN1CC(F)(F)CCN(C)[C@H]2CC[C@@H](C2)Nc2ncc(C(F)(F)F)c(n2)-c2c[nH]c3c(P(C)(C)=O)c(ccc23)C1=O | 68.8 ng/mL
* CC1(C)CC[C@H](Nc2ncc(C(F)(F)F)c(-c3c[nH]c4c(P(C)(C)=O)c(C#N)ccc34)n2)CN1 | 69.3 ng/mL

---

test-protocol: Half life in mouse at 5 mg/kg, po
Type: ADME, organism-based
setup-conditions: in vivo
Each entry below carries its recorded half-life.
measured-property: half-life (h)

• CC1(C)CC[C@H](Nc2ncc(C(F)(F)F)c(-c3c[nH]c4c(P(C)(C)=O)c(C#N)ccc34)n2)CN1 = 2.7
• CN1CC(F)(F)CCN(C)[C@H]2CC[C@@H](C2)Nc2ncc(C(F)(F)F)c(n2)-c2c[nH]c3c(P(C)(C)=O)c(ccc23)C1=O = 4.3

---

test-protocol: Half life in human OVCAR-3 cells xenografted in female Balb/c nude mouse plasma at 10 mg/kg, po administered once daily
Assay type: ADME, organism-based
measured-property: half-life (h)

• CN1CC(F)(F)CCN(C)[C@H]2CC[C@@H](C2)Nc2ncc(C(F)(F)F)c(n2)-c2c[nH]c3c(P(C)(C)=O)c(ccc23)C1=O = 2

---

system-tested: Cytochrome P450 3A4 (Homo sapiens)
Sequence (P08684 whole entry): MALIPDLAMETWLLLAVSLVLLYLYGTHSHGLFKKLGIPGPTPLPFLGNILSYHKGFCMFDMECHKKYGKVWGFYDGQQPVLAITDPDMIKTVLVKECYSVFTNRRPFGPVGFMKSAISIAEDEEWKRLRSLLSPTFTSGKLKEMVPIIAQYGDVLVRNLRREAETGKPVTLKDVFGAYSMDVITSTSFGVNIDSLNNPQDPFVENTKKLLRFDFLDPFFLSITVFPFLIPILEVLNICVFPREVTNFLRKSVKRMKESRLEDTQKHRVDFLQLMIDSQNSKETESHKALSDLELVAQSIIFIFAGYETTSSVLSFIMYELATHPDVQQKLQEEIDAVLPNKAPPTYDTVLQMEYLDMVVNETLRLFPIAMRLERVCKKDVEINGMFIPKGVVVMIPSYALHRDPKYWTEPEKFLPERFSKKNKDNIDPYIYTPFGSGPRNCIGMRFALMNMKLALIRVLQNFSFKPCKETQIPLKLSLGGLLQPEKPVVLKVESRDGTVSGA
measured-property: IC50

• CN1CC(F)(F)CCN(C)[C@H]2CC[C@@H](C2)Nc2ncc(C(F)(F)F)c(n2)-c2c[nH]c3c(P(C)(C)=O)c(ccc23)C1=O = 5.2 µM

---

test-protocol: Clearance in mouse at 1 mg/kg, iv
Type: ADME, organism-based
setup-conditions: in vivo
measured-property: clearance (mL/min/kg)

* CN1CC(F)(F)CCN(C)[C@H]2CC[C@@H](C2)Nc2ncc(C(F)(F)F)c(n2)-c2c[nH]c3c(P(C)(C)=O)c(ccc23)C1=O | 52.6

---

Each entry below carries its recorded half-life.
test-protocol: Half life in female Balb/c nude mouse at 10 mg/kg, po
Type: ADME, organism-based
setup-conditions: in vivo
measured-property: half-life

* CP(C)(=O)c1c2ccc3c(c[nH]c13)-c1nc(ncc1C(F)(F)F)N[C@H]1CC[C@@H](C1)NCCCCNC2=O | 84 min
* CP(C)(=O)c1c2ccc3c(c[nH]c13)-c1nc(ncc1C(F)(F)F)N[C@H]1CC[C@@H](C1)NCCOCCNC2=O | 120 min
